- subject-of-test: Human immunodeficiency virus type 1 protease (Human immunodeficiency virus 1, UniProt Q72874)
pIC50: −log10 of the molar value. Residues, ends and D or L forms follow the SMILES beside them. *: point of attachment. X2 = CC(C)(C)[Si](OCC1CCN2CCC(CSCC(=O)*)NC2=N1)(c1ccccc1)c1ccccc1; Bn = c1ccc(C*)cc1
result-type: pIC50

compound | result-type | val
CC(C)C[C@H](NC(=O)[C@@H](NC(=O)[C@H](C)NC(=O)CNC(=O)CSCC1CCN2CCC(CO[Si](c3ccccc3)(c3ccccc3)C(C)(C)C)N=C2N1)[C@@H](C)OCc1ccccc1)C(=O)N[C@@H](CC(N)=O)C(=O)N[C@@H](Cc1ccccc1)C(=O)OCc1ccccc1 (stereo in doubt; 6'(R,R)) | pIC50 | 5.70
CC[C@H](C)[C@H](NC(=O)CNC(=O)CSCC1CCN2CCC(CO[Si](c3ccccc3)(c3ccccc3)C(C)(C)C)N=C2N1)C(=O)N[C@@H](COCc1ccccc1)C(=O)N[C@@H](Cc1ccc(OCc2ccccc2)cc1)C(=O)N[C@@H](CC(N)=O)C(=O)N[C@@H](CC(C)C)C(=O)OC (stereo partly drawn) (X2-GIS(Bn)Y(Bn)NL-OMe) | pIC50 | 5.48
CC(C)C[C@H](NC(=O)[C@@H](NC(=O)[C@H](C)NC(=O)CNC(=O)CSCC1CCN2CCC(CO[Si](c3ccccc3)(c3ccccc3)C(C)(C)C)N=C2N1)[C@@H](C)OCc1ccccc1)C(=O)N[C@@H](CC(N)=O)C(=O)N[C@@H](Cc1ccccc1)C(=O)O (stereo partly drawn) (X2-GAT(Bn)LNF-OH) | pIC50 | 4.96

====

pIC50: −log10 of the molar value. Residues, ends and D or L forms follow the SMILES beside them. *: point of attachment. X1 = CC(C)CCC[C@@H](C)[C@H]1CCC2C3CC=C4C[C@H](SC[C@@H]5CCN6CC[C@@H](CSCC(=O)*)NC6=N5)CC[C@]4(C)C3CC[C@@]21C; X2 = CC(C)(C)[Si](OCC1CCN2CCC(CSCC(=O)*)NC2=N1)(c1ccccc1)c1ccccc1; OBn = c1ccc(CO*)cc1; Bn = c1ccc(C*)cc1
pIC50, UniProtKB Q72874: measured values
result-type: pIC50

compound | subject-of-test | val
CC[C@H](C)[C@H](NC(=O)[C@H](C)NC(=O)CSCC1CCN2CCC(CO[Si](c3ccccc3)(c3ccccc3)C(C)(C)C)N=C2N1)C(=O)N[C@H](C(=O)N[C@@H](CC(C)C)C(=O)N[C@@H](Cc1c[nH]c2ccccc12)C(=O)OC)[C@@H](C)OCc1ccccc1 (stereo partly drawn) (X2-AIT(Bn)LW-OMe) | UniProtKB Q72874 | 5.30
CC(C)CCC[C@@H](C)[C@H]1CCC2C3CC=C4C[C@H](SC[C@@H]5CCN6CC[C@@H](CSCC(=O)NCC(=O)N[C@@H](C)C(=O)N[C@H](C(=O)N[C@@H](CC(C)C)C(=O)N[C@@H](CC(N)=O)C(=O)N[C@@H](Cc7ccccc7)C(=O)OCc7ccccc7)[C@@H](C)OCc7ccccc7)NC6=N5)CC[C@]4(C)C3CC[C@@]21C (stereo partly drawn) (X1-GAT(Bn)LNF-OBn) | UniProtKB Q72874 | 5.52
CC[C@H](C)[C@H](NC(=O)CNC(=O)CSCC1CCN2CCC(CO[Si](c3ccccc3)(c3ccccc3)C(C)(C)C)N=C2N1)C(=O)N[C@@H](CO)C(=O)N[C@@H](Cc1ccc(O)cc1)C(=O)N[C@@H](CC(N)=O)C(=O)N[C@@H](CC(C)C)C(=O)OC (stereo partly drawn) (X2-GISYNL-OMe) | UniProtKB Q72874 | 5.30

====

Residues, ends and D or L forms follow the SMILES beside them. *: point of attachment. X3 = CC(C)(C)[Si](OC[C@@H]1CCN2CC[C@@H](COC(=O)CCCCC(=O)*)NC2=N1)(c1ccccc1)c1ccccc1
IC50 values recorded for Human immunodeficiency virus type 1 protease (Human immunodeficiency virus 1)
result-type: IC50 (µM)

compound | val
COC(=O)[C@H](Cc1ccccc1)NC(=O)[C@H](CC(N)=O)NC(=O)[C@H](CC(C)C)NC(=O)[C@@H](NC(=O)[C@H](C)NC(=O)CCCCC(=O)OC[C@@H]1CCN2CC[C@@H](CO[Si](c3ccccc3)(c3ccccc3)C(C)(C)C)N=C2N1)[C@@H](C)O (X3-ATLNF-OMe) | 1.9
CC(C)C[C@H](NC(=O)[C@@H](NC(=O)[C@H](C)NC(=O)CNC(=O)CSCC1CCN2CCC(CO[Si](c3ccccc3)(c3ccccc3)C(C)(C)C)N=C2N1)[C@@H](C)OCc1ccccc1)C(=O)N[C@@H](CC(N)=O)C(=O)N[C@@H](Cc1ccccc1)C(=O)OCc1ccccc1 (stereo in doubt; 6 (S,S)) | 1.6

====

- subject-of-test: Human immunodeficiency virus type 1 protease (Human immunodeficiency virus 1) (UniProt Q72874)
- assay-procedure: Dimerization inhibition against HIV-1 Protease
Residues, ends and D or L forms follow the SMILES beside them. *: point of attachment. X3 = CC(C)(C)[Si](OC[C@@H]1CCN2CC[C@@H](COC(=O)CCCCC(=O)*)NC2=N1)(c1ccccc1)c1ccccc1; X2 = CC(C)(C)[Si](OCC1CCN2CCC(CSCC(=O)*)NC2=N1)(c1ccccc1)c1ccccc1; Bn = c1ccc(C*)cc1
Binary call on Kid with cut-off 0.4 µM: strictly below means condition met, and equality or higher means condition not met.

compound | category-label
CC[C@H](C)[C@H](NC(=O)CNC(=O)CSCC1CCN2CCC(CO[Si](c3ccccc3)(c3ccccc3)C(C)(C)C)N=C2N1)C(=O)N[C@@H](COCc1ccccc1)C(=O)N[C@@H](Cc1ccc(OCc2ccccc2)cc1)C(=O)N[C@@H](CC(N)=O)C(=O)N[C@@H](CC(C)C)C(=O)OC (stereo partly specified) (X2-GIS(Bn)Y(Bn)NL-OMe) | condition met
COC(=O)[C@H](Cc1ccccc1)NC(=O)[C@H](CC(N)=O)NC(=O)[C@H](CC(C)C)NC(=O)[C@@H](NC(=O)[C@H](C)NC(=O)CCCCC(=O)OC[C@@H]1CCN2CC[C@@H](CO[Si](c3ccccc3)(c3ccccc3)C(C)(C)C)N=C2N1)[C@@H](C)O (X3-ATLNF-OMe) | condition not met
CC(C)C[C@H](NC(=O)[C@@H](NC(=O)[C@H](C)NC(=O)CNC(=O)CSCC1CCN2CCC(CO[Si](c3ccccc3)(c3ccccc3)C(C)(C)C)N=C2N1)[C@@H](C)OCc1ccccc1)C(=O)N[C@@H](CC(N)=O)C(=O)N[C@@H](Cc1ccccc1)C(=O)OCc1ccccc1 (stereo in doubt; 6'(R,R)) | condition met
CC[C@H](C)[C@H](NC(=O)[C@H](C)NC(=O)CSCC1CCN2CCC(CO[Si](c3ccccc3)(c3ccccc3)C(C)(C)C)N=C2N1)C(=O)N[C@H](C(=O)N[C@@H](CC(C)C)C(=O)N[C@@H](Cc1c[nH]c2ccccc12)C(=O)OC)[C@@H](C)OCc1ccccc1 (stereo partly specified) (X2-AIT(Bn)LW-OMe) | condition not met
CC(C)C[C@H](NC(=O)[C@@H](NC(=O)[C@H](C)NC(=O)CNC(=O)CSCC1CCN2CCC(CO[Si](c3ccccc3)(c3ccccc3)C(C)(C)C)N=C2N1)[C@@H](C)OCc1ccccc1)C(=O)N[C@@H](CC(N)=O)C(=O)N[C@@H](Cc1ccccc1)C(=O)OCc1ccccc1 (stereo in doubt; 6 (S,S)) | condition met

Source: ChEMBL document CHEMBL1145908
